Provenance of the data: ChEMBL document CHEMBL1138981

Tested on: Rattus norvegicus
PROTOCOL TEXT: AUC in rat at 2 mg/kg, po
Format: ADME, organism-based, Plasma
Parameters: dose 2 mg/kg, route oral
CONDITION: in vivo
METRIC: AUC (µM·h)
Hi! Could you send only the number? It should be in µM·h, unit omitted.

Bench note, Rattus norvegicus: entry CN(Cc1ccc(-c2ccccc2S(N)(=O)=O)cc1)C(=O)[C@@H]1CCC[C@H]1C(=O)NCc1ccc(OC(F)(F)F)cc1 (relative stereo) , its AUC = 1.8

###

TESTED SYSTEM: Sodium channel protein type 9 subunit alpha (Homo sapiens, UniProt Q15858)
Sequence (Q15858 whole entry): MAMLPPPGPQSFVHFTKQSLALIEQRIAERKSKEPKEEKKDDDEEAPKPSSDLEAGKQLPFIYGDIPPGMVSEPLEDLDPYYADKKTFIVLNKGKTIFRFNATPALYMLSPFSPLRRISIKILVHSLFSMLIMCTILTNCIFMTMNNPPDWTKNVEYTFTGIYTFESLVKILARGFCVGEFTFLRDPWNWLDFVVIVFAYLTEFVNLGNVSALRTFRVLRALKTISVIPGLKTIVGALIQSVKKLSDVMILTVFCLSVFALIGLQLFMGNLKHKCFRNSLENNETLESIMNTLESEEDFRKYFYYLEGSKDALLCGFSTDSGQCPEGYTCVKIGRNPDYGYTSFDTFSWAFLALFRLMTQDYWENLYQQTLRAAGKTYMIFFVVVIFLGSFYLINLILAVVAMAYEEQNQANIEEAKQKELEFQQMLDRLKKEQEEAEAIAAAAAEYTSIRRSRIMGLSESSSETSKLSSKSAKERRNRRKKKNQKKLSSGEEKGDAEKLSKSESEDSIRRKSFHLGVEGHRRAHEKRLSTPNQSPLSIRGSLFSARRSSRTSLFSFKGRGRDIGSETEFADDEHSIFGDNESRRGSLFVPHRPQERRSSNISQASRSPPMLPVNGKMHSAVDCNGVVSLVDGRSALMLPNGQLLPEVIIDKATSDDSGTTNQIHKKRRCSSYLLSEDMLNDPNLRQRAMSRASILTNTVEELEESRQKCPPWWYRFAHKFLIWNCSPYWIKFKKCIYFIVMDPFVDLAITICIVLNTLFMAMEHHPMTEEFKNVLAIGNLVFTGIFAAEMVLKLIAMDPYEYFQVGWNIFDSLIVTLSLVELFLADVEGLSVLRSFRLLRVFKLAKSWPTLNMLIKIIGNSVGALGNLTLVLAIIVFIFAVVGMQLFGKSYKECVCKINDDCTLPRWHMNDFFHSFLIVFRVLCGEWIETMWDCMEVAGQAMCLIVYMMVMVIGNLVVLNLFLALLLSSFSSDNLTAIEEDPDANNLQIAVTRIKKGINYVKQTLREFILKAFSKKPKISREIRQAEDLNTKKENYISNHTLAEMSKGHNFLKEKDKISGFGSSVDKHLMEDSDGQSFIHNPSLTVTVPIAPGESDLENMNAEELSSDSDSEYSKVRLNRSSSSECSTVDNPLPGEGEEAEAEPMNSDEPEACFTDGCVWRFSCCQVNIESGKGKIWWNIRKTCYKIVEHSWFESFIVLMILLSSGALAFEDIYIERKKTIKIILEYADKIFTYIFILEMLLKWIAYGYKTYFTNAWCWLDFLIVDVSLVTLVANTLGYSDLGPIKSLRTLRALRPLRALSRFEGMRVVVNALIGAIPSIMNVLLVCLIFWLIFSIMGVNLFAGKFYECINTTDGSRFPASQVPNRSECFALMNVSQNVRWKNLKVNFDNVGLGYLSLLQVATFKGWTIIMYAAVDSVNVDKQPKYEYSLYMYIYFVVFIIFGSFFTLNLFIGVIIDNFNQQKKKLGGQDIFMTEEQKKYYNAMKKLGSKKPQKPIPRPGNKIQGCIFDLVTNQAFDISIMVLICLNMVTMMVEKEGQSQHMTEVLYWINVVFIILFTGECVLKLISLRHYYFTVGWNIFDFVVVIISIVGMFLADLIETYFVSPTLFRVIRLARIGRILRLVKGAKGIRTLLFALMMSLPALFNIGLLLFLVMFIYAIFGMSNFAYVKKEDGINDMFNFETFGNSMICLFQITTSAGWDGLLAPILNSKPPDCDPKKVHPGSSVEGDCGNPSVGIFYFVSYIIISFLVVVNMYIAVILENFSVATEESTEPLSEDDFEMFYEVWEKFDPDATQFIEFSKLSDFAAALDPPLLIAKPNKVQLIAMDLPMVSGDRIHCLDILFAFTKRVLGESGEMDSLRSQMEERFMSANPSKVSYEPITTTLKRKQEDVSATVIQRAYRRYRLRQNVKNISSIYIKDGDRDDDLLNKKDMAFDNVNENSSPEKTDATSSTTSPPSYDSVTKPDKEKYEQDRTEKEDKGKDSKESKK
PROTOCOL TEXT: Inhibition of peripheral nerve sodium channel NaV1.7
Classification by IC50 follows these ranges: bottom bin = under 400 nM, middle bin = from 400 nM up to 800 nM, top bin = 800 nM and over

Previously resolved entries follow.
{"MOLECULE": "O=C(NCc1ccccc1)[C@@H]1CCC[C@H]1C(O)CCc1ccc(OC(F)(F)F)cc1 (stereo in doubt; 13)", "TESTED SYSTEM": "Sodium channel protein type 9 subunit alpha (Homo sapiens, UniProt Q15858)", "DISCRETE LABEL": "middle bin"}
{"MOLECULE": "O=S(=O)(NC[C@@H]1CCC[C@H]1C(O)CCc1ccccc1)c1cc(Cl)cc(Cl)c1 (relative stereo)", "TESTED SYSTEM": "Sodium channel protein type 9 subunit alpha (Homo sapiens, UniProt Q15858)", "DISCRETE LABEL": "top bin"}
{"MOLECULE": "CN(Cc1ccccc1)C(=O)[C@@H]1CCC[C@H]1C(=O)NCc1ccc(OC(F)(F)F)cc1 (relative stereo)", "TESTED SYSTEM": "Sodium channel protein type 9 subunit alpha (Homo sapiens, UniProt Q15858)", "DISCRETE LABEL": "top bin"}
{"MOLECULE": "O=C(NCc1cc(Cl)cc(Cl)c1)[C@@H]1CCC[C@H]1C(O)CCc1cccc(OC(F)(F)F)c1 (relative stereo)", "TESTED SYSTEM": "Sodium channel protein type 9 subunit alpha (Homo sapiens, UniProt Q15858)", "DISCRETE LABEL": "middle bin"}
{"MOLECULE": "O=S(=O)(NC[C@@H]1CCC[C@H]1C(O)CCc1ccccc1)c1ccc(OC(F)(F)F)cc1 (relative stereo)", "TESTED SYSTEM": "Sodium channel protein type 9 subunit alpha (Homo sapiens, UniProt Q15858)", "DISCRETE LABEL": "middle bin"}

Which bin should I file OC(CCc1ccccc1)[C@@H]1CCC[C@H]1COCc1cc(Cl)cc(Cl)c1 (relative stereo) under?
top bin

Hey, which category is O=C(NCc1cc(Cl)cc(Cl)c1)[C@@H]1CCC[C@H]1C(O)CCc1ccc(OC(F)(F)F)cc1 (relative stereo) in, do you know?
top bin

Please let me know in which category the item O=C(NCc1ccccc1)[C@@H]1CCC[C@H]1C(O)CCc1ccccc1OC(F)(F)F (relative stereo) belongs.
bottom bin

Please classify: O=C(NCc1ccccc1)[C@@H]1CCC[C@H]1C(O)CCc1ccc(OC(F)(F)F)cc1 (stereo in doubt; 13A)
middle bin

Assign a category based on measured IC50 for O=C(NCc1ccccc1C(F)(F)F)[C@@H]1CCC[C@H]1C(O)CCc1cccc(OC(F)(F)F)c1 (relative stereo) and give only the class name.
middle bin

Which category fits this record: O=C(NC[C@@H]1CCC[C@H]1C(O)CCc1ccccc1)c1ccc(OC(F)(F)F)cc1 (relative stereo)
bottom bin

Would you mind sorting O=C(NCc1ccccc1)[C@@H]1CCC[C@H]1C(O)CCc1ccccc1 (relative stereo) into the appropriate category?
top bin

Dear colleague, I would appreciate it if you could identify the bin for CS(=O)(=O)c1ccc(CCC(O)[C@@H]2CCC[C@H]2C(=O)NCc2ccc(OC(F)(F)F)cc2)cc1 (relative stereo) and reply at your convenience.
top bin

Looking at CN(Cc1ccc(-c2ccccc2S(N)(=O)=O)cc1)C(=O)[C@@H]1CCC[C@H]1C(=O)NCc1ccc(OC(F)(F)F)cc1 (relative stereo) , which class would you pick?
bottom bin
